conditions: 303.15 K, Drop volume
property measured: surface tension liquid-gas (mN/m)
The figure you give is taken to be in mN/m; do not add the unit.

// query Dear colleague, I am looking for the recorded surface tension liquid-gas of the following compound: CCCC[n+]1ccccc1.F[B-](F)(F)F [1-butylpyridinium tetrafluoroborate]
// result 46.3

// query Dear colleague, I am looking for the recorded surface tension liquid-gas of the following compound: CO
// result 21.81

// query Dear colleague, I am looking for the recorded surface tension liquid-gas of the following compound: CCC[n+]1ccccc1.F[B-](F)(F)F [1-propylpyridinium tetrafluoroborate]
// result 50.51

// query Dear colleague, I am looking for the recorded surface tension liquid-gas of the following compound: CCCC[n+]1cccc(C)c1.F[B-](F)(F)F [1-butyl-3-methylpyridinium tetrafluoroborate]
// result 44.48

// query Dear colleague, I am looking for the recorded surface tension liquid-gas of the following compound: CCCC[n+]1ccc(C)cc1.F[B-](F)(F)F [1-butyl-4-methylpyridinium tetrafluoroborate]
// result 45.09

// query Dear colleague, I am looking for the recorded surface tension liquid-gas of the following compound: CCO
// result 21.49

----------
conditions: 323.15 K, Drop volume
Please use fulfilled whenever surface tension liquid-gas is not below 40 mN/m, and not fulfilled whenever it is.

CCO [ethanol] ... not fulfilled
CCC[n+]1ccccc1.F[B-](F)(F)F [1-propylpyridinium tetrafluoroborate] ... fulfilled
CO [methanol] ... not fulfilled

// query Could you verify whether the entry CCCC[n+]1cccc(C)c1.F[B-](F)(F)F [1-butyl-3-methylpyridinium tetrafluoroborate] shows surface tension liquid-gas of no less than 40 mN/m?
// result fulfilled

// query Could you verify whether the entry CCCC[n+]1ccccc1.F[B-](F)(F)F [1-butylpyridinium tetrafluoroborate] shows surface tension liquid-gas of no less than 40 mN/m?
// result fulfilled

// query Could you verify whether the entry CCCC[n+]1ccc(C)cc1.F[B-](F)(F)F [1-butyl-4-methylpyridinium tetrafluoroborate] shows surface tension liquid-gas of no less than 40 mN/m?
// result fulfilled

----------
Known surface tension liquid-gas of a selection of compounds
conditions: 293.15 K, Drop volume
The figure you give is taken to be in mN/m; do not add the unit.

Some entries whose results are on file:
CCO [ethanol] ... 22.28
CO [methanol] ... 22.6
CCCC[n+]1cccc(C)c1.F[B-](F)(F)F [1-butyl-3-methylpyridinium tetrafluoroborate] ... 45.21
CCC[n+]1ccccc1.F[B-](F)(F)F [1-propylpyridinium tetrafluoroborate] ... 51.29
CCCC[n+]1ccccc1.F[B-](F)(F)F [1-butylpyridinium tetrafluoroborate] ... 46.9

# input for lookup
// query Dear colleague, I am looking for the recorded surface tension liquid-gas of the following compound: CCCC[n+]1ccc(C)cc1.F[B-](F)(F)F [1-butyl-4-methylpyridinium tetrafluoroborate]
// result 45.82
